# Test system: AXL
# condition_set: concentration: 1 μM, replicates: in singlicate; n = 1;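 also: KINOMEscan kinase panel screen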
measurement_type: %Inh (%)

>  <molecule>
O=C(c1ccc(-c2cc(-c3c[nH]nc3-c3ccccn3)ccn2)cc1)N1CCOCC1

>  <measurement_type>
%Inh

>  <readout_value>
0

$$$$
>  <molecule>
CN(C1=C(c2ccccc2)C(=O)NC1=O)c1ccccc1

>  <measurement_type>
%Inh

>  <readout_value>
0

$$$$
>  <molecule>
O=C(NOCC1CC1)c1ccc(F)c(F)c1Nc1ccc(I)cc1Cl

>  <measurement_type>
%Inh

>  <readout_value>
2

$$$$
>  <molecule>
Cc1nnc(-c2ccc(C)c(-c3ccc(C(=O)Nc4ccc(NS(C)(=O)=O)cc4)cc3)c2)o1

>  <measurement_type>
%Inh

>  <readout_value>
1

$$$$
>  <molecule>
Cc1nnc(-c2ccc3occ(-c4ccc(C(C)O)cc4)c3c2)o1 (stereo not shown)

>  <measurement_type>
%Inh

>  <readout_value>
3

$$$$
>  <molecule>
O=c1cc(N2CCOCC2)nc2n(Cc3cccc(Cl)c3Cl)c(C3CC3)nn12

>  <measurement_type>
%Inh

>  <readout_value>
3

$$$$
>  <molecule>
CNc1ncnc2[nH]ncc12

>  <measurement_type>
%Inh

>  <readout_value>
0

$$$$
>  <molecule>
CCc1nc(-c2cccc(C)c2)c(-c2ccnc(NCc3ccccc3)c2)s1

>  <measurement_type>
%Inh

>  <readout_value>
0

$$$$
>  <molecule>
Cl.Nc1ncnc2occ(-c3ccc(NC(=O)Nc4cc(C(F)(F)F)ccc4F)cc3)c12

>  <measurement_type>
%Inh

>  <readout_value>
97.7

$$$$
>  <molecule>
Cc1ccc(C(=O)NCC(N)=O)cc1-n1c(C)cc(OCc2ccc(F)cc2F)c(Br)c1=O

>  <measurement_type>
%Inh

>  <readout_value>
11

$$$$

---

# Tested on: PLK3
# condition_set: concentration: 1 μM, replicates: in singlicate; n = 1
Measured %Inh, listed per entry for reference.
measurement_type: %Inh (%)

>  <molecule>
[2H]C([2H])(c1cccc(C(F)(F)F)c1C)n1ccn2c(=O)nc(N3CCOCC3)cc12

>  <target_system>
PLK3

>  <readout_value>
0

$$$$
>  <molecule>
CSc1ccc(-c2cc3ncnc(SCC(=O)O)c3s2)cc1

>  <target_system>
PLK3

>  <readout_value>
0

$$$$
>  <molecule>
CCc1nc(-c2cccc(C)c2)c(-c2ccnc(NCc3ccccc3)c2)s1

>  <target_system>
PLK3

>  <readout_value>
6

$$$$
>  <molecule>
COc1ccc(Nc2nccc(N3CCC(NC(=O)Nc4cc(C)ccc4C)C3)n2)cc1 (stereo not drawn)

>  <target_system>
PLK3

>  <readout_value>
0

$$$$
>  <molecule>
COC(=O)Nc1nc2cc(Oc3ccc(NC(=O)Nc4cc(F)ccc4F)cc3)ccc2[nH]1.Cl

>  <target_system>
PLK3

>  <readout_value>
0

$$$$
>  <molecule>
c1ccc(-c2cc(-c3c[nH]nc3-c3ccccn3)ccn2)cc1

>  <target_system>
PLK3

>  <readout_value>
0

$$$$

---

# Tested on: JNK2
# Construct: gene MAPK9
# condition_set: concentration: 1 μM, replicates: in singlicate; n = 1
I'd appreciate it if you marked entries 1 when %Inh is lower than 30% and 0 when it is not.

>  <molecule>
Cc1c(Cn2c(C)nn3c(=O)cc(N4CCOC(C)C4)nc23)cccc1C(F)(F)F (stereo not drawn) [GSK2344444]

>  <answer_label>
1

$$$$
>  <molecule>
O=C(NOCC1CC1)c1ccc(F)c(F)c1Nc1ccc(I)cc1Cl

>  <answer_label>
1

$$$$
>  <molecule>
Cc1cccc(Cn2ccn3c(=O)cc(N4CCOCC4)nc23)c1 [GSK2297542]

>  <answer_label>
0

$$$$
>  <molecule>
O=C1NC(=O)C(N2CCc3ccccc32)=C1c1cccc(Cl)c1 [SB-408010]

>  <answer_label>
0

$$$$
>  <molecule>
Cc1c2ccc(N(C)c3ccnc(Nc4cccc(S(N)(=O)=O)c4)n3)cc2nn1Cc1ccccc1.Cl.Cl [GW787226]

>  <answer_label>
1

$$$$
>  <molecule>
COc1ccc(CNC(=O)NC2CCN(c3ccnc(Nc4ccc(OC)cc4)n3)C2)cc1 (stereo not drawn) [GSK1379727]

>  <answer_label>
1

$$$$
